B1: PhoQ; a variant is named by its letters at X, in order, P23837 (parent)
chain: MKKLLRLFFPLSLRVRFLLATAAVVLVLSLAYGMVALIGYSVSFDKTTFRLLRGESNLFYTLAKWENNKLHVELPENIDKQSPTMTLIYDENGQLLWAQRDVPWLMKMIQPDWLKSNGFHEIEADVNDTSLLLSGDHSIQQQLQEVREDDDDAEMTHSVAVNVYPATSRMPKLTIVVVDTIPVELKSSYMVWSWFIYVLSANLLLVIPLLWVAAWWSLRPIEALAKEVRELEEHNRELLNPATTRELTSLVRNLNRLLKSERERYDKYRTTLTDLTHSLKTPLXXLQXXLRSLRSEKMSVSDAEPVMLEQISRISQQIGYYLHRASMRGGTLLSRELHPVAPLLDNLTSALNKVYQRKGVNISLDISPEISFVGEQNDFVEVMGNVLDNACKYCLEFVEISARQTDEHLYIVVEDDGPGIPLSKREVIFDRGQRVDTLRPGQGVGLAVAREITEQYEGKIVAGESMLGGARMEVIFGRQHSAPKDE

# Variants of: B1
# protocolDescription: enrichment ratio after two sorts for PhoP signalling (ratio (wild type AVST 3.29)); higher = more functional
# conditionParameters: with PhoP (E. coli)
In all, about 140,000 sequences were measured (“enrichment ratio after two sorts for PhoP signalling”: median about 0, highest 2% from about 11 on). What follows is part of a selection rich in the highest values, with near analogues and random picks from the rest.
testReadout: enrichment ratio

residueChange | readoutValue
VRLN | ≤ 0.25

For the 2 variants below, give their enrichment ratio values.
1. APLI
2. YRSY

0.336
≤ 0.25

For the 2 variants below, give their enrichment ratio values.
1. DPTF
2. TDLI

1: ≤ 0.25; 2: 16.1

For the 5 variants below, give their enrichment ratio values.
1. TDFE
2. SCTT
3. EFTP
4. GMCN
5. HVPY

1. ≤ 0.25
2. 11.4
3. ≤ 0.25
4. 13.6
5. ≤ 0.25

For the 4 variants below, give their enrichment ratio values.
1. AILT
2. TENY
3. LLHT
4. ARFW

1. 6.15
2. 11.3
3. ≤ 0.25
4. ≤ 0.25
